# targetUnderTest: OEP21 (Pisum sativum, UniProt Q9SM57)
# Sequence (Q9SM57 whole entry): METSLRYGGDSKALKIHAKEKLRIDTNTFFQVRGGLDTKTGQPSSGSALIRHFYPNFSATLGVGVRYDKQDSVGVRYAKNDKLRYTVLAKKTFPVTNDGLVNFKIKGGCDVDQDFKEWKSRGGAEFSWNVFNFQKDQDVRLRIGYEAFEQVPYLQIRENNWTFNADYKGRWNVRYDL
# measurementDescription: CD-detected thermal melting of OEP21 in presence of metabolites
# Type: binding, garden pea
# Set-up: made in house
# details: ED Fig. 4a; OEP21 with 0.5 mM metabolite; CD at 215 nm; Apo 58.5
property: Melting point

Nc1nc2c(ncn2[C@@H]2O[C@H](COP(=O)(O)OP(=O)(O)OP(=O)(O)O)[C@@H](O)[C@H]2O)c(=O)[nH]1 [GTP]; 66.48 ｡C

Test item Nc1ncnc2c1ncn2[C@@H]1O[C@H](COP(=O)(O)OP(=O)(O)O)[C@@H](O)[C@H]1O [ADP] ; OEP21 (Pisum sativum, UniProt Q9SM57); reported Melting point was 59.2 ｡C

Given the compound O=C(O)[C@H](O)COP(=O)(O)O [3PGA] and test system OEP21 (Pisum sativum, UniProt Q9SM57), the measured Melting point is 58.78 ｡C

Readout Melting point for Nc1ccn([C@@H]2O[C@H](COP(=O)(O)OP(=O)(O)OP(=O)(O)O)[C@@H](O)[C@H]2O)c(=O)n1 [CTP] , test system OEP21 (Pisum sativum, UniProt Q9SM57), was 63.71 ｡C
